test system: OVCAR-8 ovarian; assay: NCI tumour cell line growth inhibition, 48 h
MEASURED_ENDPOINT: TGI

COMPOUND	RECORDED_RESULT
Cc1nc2c(=O)n(C)c(=O)n(C)c2o1	> 100 µM
CC(C)(Oc1ccc(Cl)cc1)C(=O)NC1C2CC3CC1CC(NS(C)(=O)=O)(C3)C2 (centres undefined)	> 100 µM
CC(C)(C)c1cc2c(O)c(c1)C(c1ccccc1)c1cc(C(C)(C)C)cc(c1O)Cc1cc(C(C)(C)C)cc(c1O)C(c1ccccc1)c1cc(C(C)(C)C)cc(c1O)C2 (centres undefined)	> 100 µM
CCN(CC)CCn1c(N)c(-c2nc3ccccc3n2C)c2nc(C#N)c(C#N)nc21	13.8 µM
O=C1c2ccc3c4c(ccc(c24)C(=O)N1CCCNCc1ccccc1F)C(=O)N(CCCNCc1ccccc1F)C3=O	0.422 µM
Cn1c2ccccc2c(=NNc2ccc(S(N)(=O)=O)cc2)c2ccccc21	> 50 µM
Nc1[nH]c(=O)nc2c1cnn2Cc1ccccc1	> 100 µM
CCCCC/C=C/C(=O)CCc1ccc(O)c(OC)c1	16.7 µM
CC(=O)OCC1OC(OC2CCCC[Si](c3ccccc3)(c3ccccc3)O2)C(OC(C)=O)C(OC(C)=O)C1OC(C)=O (centres undefined)	> 100 µM
